# METHOD_SUMMARY: Plasma pharmacokinetics after single oral dose of Δ8-THCV in MCT oil (LC-MS/MS, non-compartmental analysis)
# Format: in vivo, human
# Parameters: unit not given here
# CONDITION_SET: 200 mg single oral Δ8-THCV in MCT oil; plasma; Median (Range)
# Description: The study was a two-phase, dose-ranging, placebo-controlled trial in 21 healthy participants to assess the safety, tolerability, PK, and PD of an oral formulation of Δ8-THCV. A detailed description of the study was published elsewhere. […] Plasma samples were analyzed using a validated high-performance liquid chromatography–tandem mass spectrometry (LC-MS/MS) assay. […] For the PK analysis, concentrations below the lower limit of quantification were set to 0 ng/mL. […]
READOUT_KIND: Clast (last quantifiable concentration)

> print(dat)
                                   compound                             readout.kind  recorded.result
1  CCCc1cc(O)c2c(c1)OC(C)(C)[C@@H]1CCC(C)=C[C@@H]21 [Δ9-THCV, Δ9-tetrahydrocannabivarin]  Clast (last quantifiable concentration)    1.4 (0.5–4.1)
2  CCCc1cc(O)c2c(c1)OC(C)(C)[C@@H]1CC=C(C)C[C@@H]21 [Δ8-THCV, Δ8-tetrahydrocannabivarin]  Clast (last quantifiable concentration)  13.4 (1.5–87.6)
3  CCCc1cc(O)c2c(c1)OC(C)(C)[C@@H]1CC=C(C(=O)O)C[C@@H]21  Clast (last quantifiable concentration)   855 (364–2402)
